target: HLA-B*07:02; assay: thermal melting temperature (Tm) of peptide-HLA complex; higher = more thermostable pHLA complex; settings: C1R-B*07:02;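 further: lysates heated 10 min at 37–73 °C, complexes pulled down with pan-HLA I antibody, peptide signal by DIA-MS relative to 37 °C, Tm where half the complex is unfolded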
In all, about 1,400 sequences were measured (“thermal melting temperature (Tm) of peptide-HLA complex”: median about 60, lowest 2% from about 45 on). Shown is part of a subset that was picked to be rich in the lowest values.
Could you please report measured thermal melting temperature for the items listed next?
Write it as a number; the unit °C goes unstated.

Please fill in: thermal melting temperature reported for `LPSGDRVAVSV` = 61

Please fill in: thermal melting temperature reported for `VPQVKASAL` = 59

Please fill in: thermal melting temperature reported for `RPVLWVGV` = 60.8

Please fill in: thermal melting temperature reported for `RPAANPIQFTL` = 59.8

Please fill in: thermal melting temperature reported for `RPAVIGDVL` = 59.3

Please fill in: thermal melting temperature reported for `KPWLRALQL` = 59.7

Please fill in: thermal melting temperature reported for `SPRPALPALLV` = 59.4
